tested on: PANC-1; experiment: Cytotoxicity against human PANC1 after 24 hrs by fluorometric microculture cytotoxicity assay; assay type: functional, cell-based; settings: PANC-1, 24 h
Give measured pIC50 for each item. Keep answers brief.
Note on pIC50: it is the negative log10 of concentration, concentration in mol/L.

Tell me pIC50 of `C=C(C)[C@@H]1CC[C@]2(C(=O)O)CC[C@]3(C)[C@H](CC[C@@H]4[C@@]5(C)[C@@H](C(=O)O)[C@H](O)C(C)(C)[C@@H]5CC[C@]43C)[C@@H]12` when tested on PANC-1.
3.71

GET pIC50 where system = PANC-1 and item = `C=C(C)[C@@H]1CC[C@]2(C(=O)O)CC[C@]3(C)[C@H](CC[C@@H]4[C@@]5(C)CC[C@H](O)C(C)(C)[C@@H]5CC[C@]43C)[C@@H]12`
4.36

Recall the reported pIC50 of `C=C(C)[C@@H]1CC[C@]2(C(=O)O)CC[C@]3(C)[C@H](CC[C@@H]4[C@@]5(C)C[C@@H](O)[C@H](O)C(C)(C)[C@@H]5CC[C@]43C)[C@@H]12` on PANC-1 and write it down.
4.39

Give pIC50 for `C=C(C)[C@@H]1CC[C@]2(C(=O)O)CC[C@]3(C)[C@H](CC[C@@H]4[C@@]5(C)[C@H](C=O)[C@@H](O)C(C)(C)[C@@H]5CC[C@]43C)[C@@H]12` tested on PANC-1.
4.37

The measured values listed here are drawn from ChEMBL document CHEMBL1142522.
